# Tested on: Kluyveromyces marxianus
# test-description: Antifungal activity against Candida pseudotropicalis by agar dilution method
# Assay type: functional
MIC values for the molecules below.

Solved entries (count: 2):
CCCCCCCC/C=C/CCCCCCCC(=O)OCC(CO[C@@H]1O[C@H](CO)[C@H](O)[C@H](O)[C@H]1O)OC(=O)CCCCCCC/C=C/CCCCCCCC (mixture of isomers) = > 128 µg/mL
CCCCC/C=C/C/C=C/CCCCCCCC(=O)OCC(CO[C@@H]1O[C@H](CO)[C@H](O)[C@H](O)[C@H]1O)OC(=O)CCCCCCC/C=C/C/C=C/CCCCC (mixture of isomers) = > 128 µg/mL

Okay, now this molecule:
For the molecule CC/C=C/C/C=C/C/C=C/CCCCCCCC(=O)OC(COC(=O)CCCCCCC)CO[C@@H]1O[C@H](CO)[C@H](O)[C@H](O)[C@H]1O (mixture of isomers) , give its measured MIC value. > 128 µg/mL

====

# Tested on: Staphylococcus aureus
# test-description: Antimicrobial activity against Staphylococcus aureus SA87 by agar dilution method
# Format: functional
measurement-type: MIC (µg/mL)
Enter your answer as a number in µg/mL; do not include the unit.

For the compound CCCCC/C=C/C/C=C/CCCCCCCC(=O)OC(COC(=O)CCCCCCC)CO[C@@H]1O[C@H](CO)[C@H](O)[C@H](O)[C@H]1O (mixture of isomers) , give its measured MIC value. 128

For the compound CC/C=C/C/C=C/C/C=C/CCCCCCCC(=O)OC(COC(=O)CCCCCCCCC)CO[C@@H]1O[C@H](CO)[C@H](O)[C@H](O)[C@H]1O (mixture of isomers) , give its measured MIC value. 32

====

# System: Mycobacterium tuberculosis
# test-description: Antimicrobial activity against Mycobacterium tuberculosis H160 by agar dilution method
# Format: functional
measurement-type: MIC (µg/mL)
Enter your answer as a number in µg/mL; do not include the unit.

CCCCC/C=C/C/C=C/CCCCCCCC(=O)OCC(CO[C@@H]1O[C@H](CO)[C@H](O)[C@H](O)[C@H]1O)OC(=O)CCCCCCC/C=C/C/C=C/CCCCC (mixture of isomers) = 128

For the compound CCCCC/C=C/C/C=C/CCCCCCCC(=O)OC(COC(=O)CCCCCCC)CO[C@@H]1O[C@H](CO)[C@H](O)[C@H](O)[C@H]1O (mixture of isomers) , give its measured MIC value. 64

For the compound CCCCCCCC/C=C/CCCCCCCC(=O)OC(COC(=O)CCCCCCC)CO[C@@H]1O[C@H](CO)[C@H](O)[C@H](O)[C@H]1O (mixture of isomers) , give its measured MIC value. 64

For the compound CC/C=C/C/C=C/C/C=C/CCCCCCCC(=O)OC(COC(=O)CCCCCCC)CO[C@@H]1O[C@H](CO)[C@H](O)[C@H](O)[C@H]1O (mixture of isomers) , give its measured MIC value. 128

====

# Test system: Staphylococcus aureus
# test-description: Antimicrobial activity against Staphylococcus aureus SA87 by agar dilution method
# Assay type: functional
MIC values for the compounds below.
Enter your answer as a number in µg/mL; do not include the unit.

Solved entries (count: 3):
CCCCC/C=C/C/C=C/CCCCCCCC(=O)OC(COC(=O)CCCCCCCCC)CO[C@@H]1O[C@H](CO)[C@H](O)[C@H](O)[C@H]1O (mixture of isomers) = 64
CCCCCCCC/C=C/CCCCCCCC(=O)OC(COC(=O)CCCCCCC)CO[C@@H]1O[C@H](CO)[C@H](O)[C@H](O)[C@H]1O (mixture of isomers) = 64
CC/C=C/C/C=C/C/C=C/CCCCCCCC(=O)OC(COC(=O)CCCCCCC)CO[C@@H]1O[C@H](CO)[C@H](O)[C@H](O)[C@H]1O (mixture of isomers) = 64

Okay, now this compound:
Under Staphylococcus aureus, report MIC for CCCCC/C=C/C/C=C/CCCCCCCC(=O)OCC(CO[C@@H]1O[C@H](CO)[C@H](O)[C@H](O)[C@H]1O)OC(=O)CCCCCCC/C=C/C/C=C/CCCCC (mixture of isomers) 128

====

MIC values for the molecules below.
# Test system: Staphylococcus aureus
# test-description: Antimicrobial activity against Staphylococcus aureus SA87 by agar dilution method
# Type: functional

Solved entries (count: 2):
CC/C=C/C/C=C/C/C=C/CCCCCCCC(=O)OCC(CO[C@@H]1O[C@H](CO)[C@H](O)[C@H](O)[C@H]1O)OC(=O)CCCCCCC/C=C/C/C=C/C/C=C/CC (mixture of isomers) = > 128 µg/mL
CCCCCCCC/C=C/CCCCCCCC(=O)OCC(CO[C@@H]1O[C@H](CO)[C@H](O)[C@H](O)[C@H]1O)OC(=O)CCCCCCC/C=C/CCCCCCCC (mixture of isomers) = > 128 µg/mL

For the molecule CCCCCCCC/C=C/CCCCCCCC(=O)OC(COC(=O)CCCCCCCCC)CO[C@@H]1O[C@H](CO)[C@H](O)[C@H](O)[C@H]1O (mixture of isomers) , give its measured MIC value. > 128 µg/mL
